System: OCI-AML2
assay: cell viability relative to vehicle control; higher = less cytotoxic;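 also: after 48 h exposure read by CellTiter-Glo luminescence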
conditionContext: 10 µM; SRSF2 genotype: wt/wt
Counter-ions that a name gives are not always drawn.
Mark Yes only when cell viability stays strictly below 90%. Values equal to the cut-off are No.

Please state whether cell viability is below 90% for Oc1cccc(O)c1O [Pyrogallol]
No

Please state whether cell viability is below 90% for C[C@@]12CC[C@@H]3[C@@](CC[C@H]4[C@@]3(C)CCC[C@@]4(C)C(=O)O)(CC1=O)C2 [Iso-Steviol]
No

Please state whether cell viability is below 90% for NC(=O)N1c2ccccc2CC(=O)c2ccccc21 [Oxcarbazepine]
Yes

Please state whether cell viability is below 90% for N=c1ccn2c(n1)O[C@H]1[C@H](O)[C@@H](CO)O[C@H]12 [Cyclocytidine HCl]
Yes

Please state whether cell viability is below 90% for O=S(=O)(c1ccccc1)c1cnc2c(N3CCNCC3)cccc2c1
No

###

System: OCI-AML2
assay: cell viability relative to vehicle control; higher = less cytotoxic
conditionContext: 10 µM; SRSF2 genotype: P95H/wt
observedProperty: cell viability (%)
Use % as the unit, but write only the number.

State its cell viability: CN(NC(=O)CC(=O)NN(C)C(=S)c1ccccc1)C(=S)c1ccccc1 [Elesclomol (STA-4783)]
2.86

State its cell viability: COc1cc(C(=O)N2CCC(N3CCN(C)CC3)CC2)ccc1Nc1ncc2c(n1)N(C)c1ccccc1C(=O)N2C
10.9

State its cell viability: Cn1cnc(-c2cc3nccc(Oc4ccc(NC(=S)NC(=O)Cc5ccccc5)cc4F)c3s2)c1
49.2

State its cell viability: COc1ccc(CCc2cc(OC)c(OC)c(OC)c2)cc1O
1.03

State its cell viability: O=C1[C@H](CC[C@H](O)c2ccc(F)cc2)[C@@H](c2ccc(O)cc2)N1c1ccc(F)cc1 [Ezetimibe (Zetia)]
80.8

State its cell viability: CCCCCCCCCCCCCCCCO
94.5

State its cell viability: CC[C@H](C)C(=O)O[C@H]1C[C@@H](C)C=C2C=C[C@H](C)[C@H](CC[C@@H]3C[C@@H](O)CC(=O)O3)[C@H]21
64.3

State its cell viability: C=CC(=O)Nc1cccc(Oc2nc(Nc3ccc(N4CCN(C)CC4)cc3)ncc2Cl)c1
0.39

###

Test system: MOLM14
assay: cell viability relative to vehicle control; higher = less cytotoxic
conditionContext: 10 µM; SRSF2 genotype: SRSF2 P95H/wt
Mark true only when cell viability stays strictly below 90%. Values equal to the cut-off are false.

Please state whether cell viability is below 90% for CC(=O)[C@H]1CC[C@H]2[C@@H]3CCC4=CC(=O)CC[C@]4(C)[C@H]3CC[C@]12C
true

Please state whether cell viability is below 90% for C[C@@H]1O[C@@H](OC[C@H]2O[C@@H](Oc3c(-c4ccc(O)c(O)c4)oc4cc(O)cc(O)c4c3=O)[C@H](O)[C@@H](O)[C@@H]2O)[C@H](O)[C@H](O)[C@H]1O [Rutin (Rutoside)]
false

Please state whether cell viability is below 90% for O=C1NCCc2[nH]c(-c3ccncc3)cc21
true

Please state whether cell viability is below 90% for COc1ccccc1-c1cc(Nc2cccc(CS(N)(=O)=O)c2)ncn1
true

Please state whether cell viability is below 90% for CC(=O)Oc1ccc2c(c1)Oc1cc(OC(C)=O)ccc1C21OC(=O)c2cc(C(=O)ON3C(=O)CCC3=O)ccc21.CC(=O)Oc1ccc2c(c1)Oc1cc(OC(C)=O)ccc1C21OC(=O)c2ccc(C(=O)ON3C(=O)CCC3=O)cc21
false

###

I'd appreciate it if you could supply cell viability values for the items below.
Tested on: MARIMO
assay: cell viability relative to vehicle control; higher = less cytotoxic
conditionContext: 10 µM; SRSF2 genotype: SRSF2 P95H/wt
Structures can show the parent of a compound that is named as a salt.
Use % as the unit, but write only the number.

State its cell viability: C[N+]1(C)[C@@H]2CC[C@H]1C[C@@H](OC(=O)C(O)c1ccccc1)C2 (some centres not stated) [Homatropine Methylbromide]
106

State its cell viability: CS(=O)(=O)c1ccc(C2=C(c3ccccc3)C(=O)OC2)cc1 [Rofecoxib (Vioxx)]
98.6

State its cell viability: COc1cc(O)c(C(=O)Nc2nc(C(=O)NCCN(C(C)C)C(C)C)cs2)cc1OC [Acotiamide hydrochloride]
98

State its cell viability: CC1(C)S[C@@H]2[C@H](NC(=O)[C@H](NC(=O)N3CCN(S(C)(=O)=O)C3=O)c3ccccc3)C(=O)N2[C@H]1C(=O)O [Mezlocillin Sodium]
101

State its cell viability: COc1cc(OC)c(C(=O)CCCN2CCCC2)c(OC)c1 [Buflomedil HCl]
100

State its cell viability: CCCSc1ccc2[nH]c(NC(=O)OC)nc2c1 [Albendazole (Albenza)]
9.83

State its cell viability: CC(C)C[C@H](NC(=O)CNC(=O)c1cc(Cl)ccc1Cl)B1OC(=O)CC(CC(=O)O)(C(=O)O)O1 (some centres not stated) [Ixazomib Citrate (MLN9708)]
0.72

###

Tested on: MARIMO
assay: cell viability relative to vehicle control; higher = less cytotoxic
conditionContext: 10 µM; SRSF2 genotype: SRSF2 wt/wt
Where a name gives a salt, the structure may show the parent alone.
I'd appreciate it if you could supply cell viability values for the items below.
Use % as the unit, but write only the number.

State its cell viability: CNC(=C[N+](=O)[O-])NCCSCc1ccc(CN(C)C)o1 [Ranitidine Hydrochloride]
106

State its cell viability: CCCCC(=O)OCC(=O)[C@H]1[C@H](C)C[C@H]2[C@@H]3C[C@H](F)C4=CC(=O)C=C[C@]4(C)[C@@]3(F)[C@@H](O)C[C@@]21C [Diflucortolone valerate]
98.2

State its cell viability: Cc1ccccc1CN1C(=O)C2=C(CCN(Cc3ccccc3)C2)N2CCN=C12
43.9

State its cell viability: Cn1cc(-c2ccncc2)c(-c2ccc(OCc3ccc4ccccc4n3)cc2)n1
90.4

###

System: K562
assay: cell viability relative to vehicle control; higher = less cytotoxic
conditionContext: 10 µM; SRSF2 genotype: SRSF2 wt/wt
Where a name gives a salt, the structure may show the parent alone.
observedProperty: cell viability (%)
Use % as the unit, but write only the number.

State its cell viability: CCOC(=O)[C@H](CCc1ccccc1)N[C@@H](C)C(=O)N1Cc2ccccc2C[C@H]1C(=O)O [Quinapril hydrochloride (Accupril)]
106

State its cell viability: CCOc1ccc2ccccc2c1C(=O)N[C@@H]1C(=O)N2[C@@H]1SC(C)(C)[C@@H]2C(=O)O [Nafcillin Sodium]
101

State its cell viability: CC#Cc1cncc(-c2ccc3c(c2)C2(N=C(C)C(N)=N2)C2(CCC(OC)CC2)C3)c1 (stereo unspecified)
107

State its cell viability: c1ccc(CNc2nc(NCc3ccccc3)c3ccccc3n2)cc1
12.4

State its cell viability: C[C@H]1O[C@@H](n2cc(F)c(=O)[nH]c2=O)[C@H](O)[C@@H]1O [Doxifluridine]
92.1

State its cell viability: O=C(O)CSc1nnc(Br)n1-c1ccc(C2CC2)c2ccccc12 [Lesinurad]
97.5

State its cell viability: OC[C@@H](O)[C@@H](O)[C@H](O)[C@H](O)CO [D-Mannitol (Osmitrol)]
106

State its cell viability: CNC(=O)c1c(C)oc2cc(Oc3ncnc4cc(OC)c(OC)cc34)ccc12 [Fruquintinib]
97.1

State its cell viability: O=C(NCCO)c1cccc(-c2cc(Nc3ccc(OC(F)(F)F)cc3)ncn2)c1
20.1

State its cell viability: COc1c(N2C[C@@H]3CCCN[C@@H]3C2)c(F)cc2c(=O)c(C(=O)O)cn(C3CC3)c12 [Moxifloxacin]
90.2

State its cell viability: CC1(C)S[C@@H]2[C@H](NC(=O)Cc3ccccc3)C(=O)N2[C@H]1C(=O)O [Penicillin G Sodium]
99.5

State its cell viability: COc1cc(O)c(C(=O)/C=C/c2ccccc2)c(OC)c1 [Flavokawain B]
58

State its cell viability: CC1(C)OC(=O)C=C[C@]2(C)[C@H]3CC[C@@]4(C)[C@H](c5ccoc5)OC(=O)[C@H]5O[C@]54[C@]3(C)C(=O)C[C@@H]12 [Obacunone]
95.4

State its cell viability: O=C(NOCC(O)CO)c1cc(Br)c(F)c(F)c1Nc1ccc(I)cc1F (stereo unspecified)
83.2

State its cell viability: C[C@@H]1CC[C@@]2(NC1)O[C@H]1C[C@H]3[C@@H]4CC=C5C[C@@H](O[C@@H]6O[C@H](CO)[C@@H](O[C@@H]7O[C@@H](C)[C@H](O)[C@@H](O)[C@H]7O)[C@H](O)[C@H]6O[C@@H]6O[C@@H](C)[C@H](O)[C@@H](O)[C@H]6O)CC[C@]5(C)[C@H]4CC[C@]3(C)[C@H]1[C@@H]2C [Solamargine]
81.8

State its cell viability: CC[C@@H]1/C=C(\C)C[C@H](C)C[C@H](OC)[C@H]2O[C@@](O)(C(=O)C(=O)N3CCCC[C@H]3C(=O)O[C@H](/C(C)=C/[C@@H]3CC[C@H](Cl)[C@H](OC)C3)[C@H](C)[C@@H](O)CC1=O)[C@H](C)C[C@@H]2OC [Pimecrolimus]
64.5

State its cell viability: O=C1CCc2c(ccc3ccccc23)O1 [Splitomicin]
95.4

State its cell viability: COc1cc2ncnc(Nc3ccc(F)c(Cl)c3)c2cc1O
102

State its cell viability: COc1ccc(C[C@@H](C)NC[C@H](O)c2ccc(O)c(NC=O)c2)cc1 [Arformoterol Tartrate]
98.8

State its cell viability: Cc1cccc(-c2nn3c(c2-c2ccnc4ccc(C(N)=O)cc24)CCC3)n1
99.2

State its cell viability: CC(=O)CCc1ccc(OC(C)=O)cc1 [Pherocon (4-(4-Acetoxyphenyl)-2-butanone)]
119

State its cell viability: CC[C@H]1OC(=O)[C@H](C)[C@@H](O[C@H]2C[C@@](C)(OC)[C@@H](O)[C@H](C)O2)[C@H](C)[C@@H](O[C@@H]2O[C@H](C)C[C@H](N(C)C)[C@H]2O)[C@](C)(O)C[C@@H](C)CN(C)[C@H](C)[C@@H](O)[C@]1(C)O [Azithromycin]
89.5

State its cell viability: CC(CNC(=O)c1cccnc1)NC(=O)c1cccnc1 (stereo unspecified) [Nicaraven]
107

State its cell viability: O=C(/C=C/c1cccc(S(=O)(=O)Nc2ccccc2)c1)NO [Belinostat (PXD101)]
5.17

State its cell viability: COC(=O)c1cc(OC)c(O)c(OC)c1 [Methyl syringate]
91.2

State its cell viability: CNCc1ccc(-c2[nH]c3cc(F)cc4c3c2CCNC4=O)cc1
97.8

State its cell viability: O=C(CCc1ccc(O)cc1)c1c(O)cc(O)cc1O [Phloretin]
98.1

State its cell viability: COC(=O)[C@H](O)[C@@H](NC(=O)c1ccccc1)c1ccccc1
107

State its cell viability: CCc1cc(C(N)=S)ccn1 [Ethionamide]
91.2

State its cell viability: Cc1cc(Nc2cc(CN3CCOCC3)c3nc(C)c(Cc4ccc(Cl)cc4F)n3n2)n[nH]1
84

State its cell viability: Cc1cc(OCc2nnc(SC3CCCC3)n2-c2cccnc2)ccc1-c1ccc(S(C)(=O)=O)cc1
1.74
